Assay comment: yeast display, Sf9 membrane polyspecificity reagent, FACS + sequencing; frameworks hold sequencing errors
Measurement label: polyreactivity (PSR sort gate)

>>> measurement("QVQLVESGGGLVQAGGSLRLSCAASGSIFYYYAMGWYRQAPGKERELVAAIDFGGGSTYYADSVKGRFTISRDNEKNTVYLQMNSLKPEDTAVYYCAARTFKDAGTAYGSWGQGTQETVSS")
"high polyreactivity"
>>> measurement("QVQLVESGGGLVQAGGSLRLSCAASGFIFGYYAMGWYRQAPGKERELVAAISSRGGSTYYADSVKGRFTISRDNAKNTVYLQMNSLIPEDTAVYYCAVRLVSFRHNFGQYDYWGQGTQLTVSS")
"high polyreactivity"

* * *

Assay comment: yeast display, Sf9 membrane polyspecificity reagent, FACS + sequencing; frameworks hold sequencing errors
Measurement label: polyreactivity (PSR sort gate)

Solved entries:
>>> measurement("QVQLVESGGGLGQAGGSLRLSCAASGRTITFNTMGWYRPAPGKERELVAGIDRGGSTNYADSVKGRFTISRDNAKNTVDLQMNSLKPEDTAVYYCAARNLRYRYRNYDYWGQGTQVTVSS")
"high polyreactivity"
>>> measurement("QVQLVESGGGLVQAGGSLRLSCSASGLTFNFNAMGWYRQAPGKERELVAAISYRAGSTYYADSVKGRFTISRDNAKNTVYLQMNSLKPEDTAVYYCAADGYYYVKSGTYWSDYWGQGTQVTVSS")
"low polyreactivity"
>>> measurement("QVQLVETGGGLVQAGGSHRLSCAASVRTLYKNAMGWYRQEPGKERELVAAISVSGGRTYYADSVKGRFTISRDNAKNTVYFQMNSLKPEDTAVYYCATRLYPISKYGYWGQGTQVTVSS")
"high polyreactivity"
>>> measurement("QVQLVESGGGFVQAGGSLRLSCAASGFTFGWYALGWYRQAPGKERELVAAMSFGGSRTYYADSVKGRFSISRDNAKNTVYLQLNILNPEDTAVYYCNVVVGSYSANARSHYWGQGTEVTVSS")
"high polyreactivity"

Below: the item to evaluate.
Q. Need polyreactivity (PSR sort gate), item "QVQLVESGGGLVQAGGSLRLSCAASGITFVPYAMGWYRQAPGKEREFVARITWSGGGTYYADSVKGRFTISRDNAKNTVYLQMNSLKPEDTAVYYSNKASLPTYYYVDGSDSWGQGTQVTVSS"
A. low polyreactivity

* * *

Assay comment: yeast display, Sf9 membrane polyspecificity reagent, FACS + sequencing; frameworks hold sequencing errors
Measurement label: polyreactivity (PSR sort gate)

>>> measurement("QVQLVESGGGLVQAGGSLRLSCAASGYIFVHYAMGWYRQEPGKERELVAAISKSGSSTYYADSVKGRFTISRDNAKNTVYLQMHSLKPEDTAVYYCAGVYPYVSGYTYGYWGQGTQVTVSS")
"low polyreactivity"
>>> measurement("QVQLVDSGGGLVQAGGSLRLSCAASGFIDALDAMGWYRQAPGKERELVAAISYSGGSTYYADSVKGRFTISRDNAKNTVYLQMNSLKPEDTAVYYCAVYYRSAFYYWGQGTQVTVSS")
"high polyreactivity"
>>> measurement("QVQLVESGGGLVQAGGSLRLSCAASGLTFDAYAMGWSRPAPGKERELVAAISWSGGSTYYAASVKGRFTISRDNAKNTVYLQMNSLKPEDTAVYYCNARYAQFRYWGQGTQVTVSS")
"high polyreactivity"
>>> measurement("QVQIVESGGGLVQAGGSLRLSCAAYGSIFRLYAMGWYRQAPGKERDFVARIRWRGGSTNYPDSVKASFTISRDNAKNTVFVQMNSQKTVDTAVYYCAAKQGTVRAHTFVPWYDYWGQGTQVSVSS")
"high polyreactivity"
>>> measurement("QVQLVESGGGLVQAGGSLRLSCAASGGIFSPNAMGWYRQAPGKERELVAGITFSGGSTYYADSVKGRFTISRDNAKTTVYLQMNSLKPEDTAVYYCNARVPPQGWGPWKAFDYWGQGTQVTVSS")
"low polyreactivity"
>>> measurement("QVQLVESGGGLVQAGGSLRIICAASGSTLGYNAMGWYRQAPGKERELVAAISSDGGSTYYADSVKGRFTISRDNAKNTVYLQMNSLKPEDTAVYYCAAYYYTPGYGSWGQGTQVTVSS")
"low polyreactivity"

Q. Reported polyreactivity (PSR sort gate) for "QVQLVESGGGLVQAGGSLRLSCAASGFIFKPYAMGWYRQAPWKERELVAAITVNGGTTYYADSVKGRFTISRDNAKNTVYLQMNSLKPEDTAVYYCNRGRPGGPSWYHYDYWGQGTQVTVSS" : what is it?
A. high polyreactivity

Q. Lookup "QVQLVESGGGLVQAGGSLRLTCAASGIIFRFYGMGWYRQEPGKEREFVAAISGGGGSTYYADSVKGRFTISRDNAKKTVYLQMNSLKPEDTAVYYCARYTYRSAFEYWGQGTQVTVSS"
A. high polyreactivity

Q. Lookup "QVQLVESGGGLVQAGGSLRLSCAASGRIFVGNAMGWYRQAPGKERELVAAISRSGGRTYYADSVKGRFTISRDNAKNSVYLQMNSLKPEDTAVYYCAAVSLSGRYGDYDYWGQGTQVTVSS"
A. high polyreactivity

Q. Then this sequence: "QVQLVESGGGLVQAGGSLRLSCAASGSIFTLYAMGWYRQAPGKERELVATINWSGGSTSYADSVKGRFTISRDNAKNTVYLQMNSLKPEDTAVYYCAADYYFWHGTGYDYWGQGTQVTVSS"
A. low polyreactivity

Q. Cool, now "QVQLVESGGGLVQAGGSLRLSCAASGSIIYIYAMGWYRQAPGKERELVAAISSGDRTNYADSVKGRFTISRDNAKNTVYLQMNSLKPEDTAVYYCAAERKNKYDYWGQGTQVTVSS"
A. high polyreactivity

* * *

Assay comment: yeast display, Sf9 membrane polyspecificity reagent, FACS + sequencing; frameworks hold sequencing errors
Measurement label: polyreactivity (PSR sort gate)

The examples below pair each entry with its known result.
>>> measurement("QVQLVESGGGLVQAGGSLRLSCAASGSIFGFYAMGWYRQAPGKERELVAAISSDGGSTYYADSVKGRFTISRDNAKNTVYLQMNSLKPEDTAVYYCAAAHGSIYDSTYYEYYYWGQGTQVTVSS")
"low polyreactivity"
>>> measurement("QVQLVESGGGLDQAGGSLRLSCAASGFIFRYYAMGWYRQAPGKERELVAAISRNGGSTYYADSVKGRFTISRDIAKNTVYLQMNSLKPEDTAVYYCAALTGRERYDYWGQGTQVTVSS")
"high polyreactivity"
>>> measurement("QVQLVESGGGLVQAGGSLRLSCAASGIIFPFYGMGWYRPAPGKERELVAAITSGDDTYYADSVKGRFTISRDNAKNTVYLQMNSLKPEDTAVYYCNKRVYIAGYWPQLYYIMDYWGQGTQVTVSS")
"low polyreactivity"
>>> measurement("QVQLVESGGGLVQAGGSLRLSCAASGGTFERNAMGWYRPAPGKERELVAAITGSGGRTYYADSVKGRFTISRDNAKNTVYLQMNSLKPEDTAVYYCAAVPWWKYNYWGQGTQVTVSS")
"high polyreactivity"
>>> measurement("QVQIVESGGGLVQAGGSLRISCAASGLTFHRYAMGRYRQAPGKERELVAAINYSGGRTYYADSVKGRFTISRDNAKNTVYLQMNSLKPVDTAVYYCAAPRASGYYWGQGTQVTVSS")
"high polyreactivity"

# ---- query sequence ----
Q. State the recorded polyreactivity (PSR sort gate) for this entry: "QVQLVESGGGLVQAGGSLRLSCAASGRIFRGNAMGWYRQPPGKERELGATITRSGARTYYADSVKGRFTISRDNAKNTVYLQMNSLKPEDTAVYYCAARRVRSYAYDYWGQGTQVTVSS"
A. high polyreactivity

* * *

Assay comment: yeast display, Sf9 membrane polyspecificity reagent, FACS + sequencing; frameworks hold sequencing errors
Measurement label: polyreactivity (PSR sort gate)

Use these answered entries as a reference point.
>>> measurement("QVQLVESGGGLVHAGGSLRLSCAASGMTFTKNVMGWYRQSPGKERELVAVISRSGGSTYYADSVKGRFTISRDNAKNTVYLQMNSLKPEDTAVYYCNVKGPGPSRGNYWGQGTQVTVSS")
"low polyreactivity"
>>> measurement("QVQLVESGGGLVQAGGSLRLSGAASGRIFWYNAMGWYRQAPGKEREVVAGITSGGRTNYADSVKGRFTISRDNAKNTVYLQMNSLKPEDTAVYYCAATHSLRMYYLGQGTQVTVSS")
"low polyreactivity"
>>> measurement("QVQLVESGGGLVQAGGSLRLSCAASGRTFPVYDMGWYRQAPGKERELVAGITGSGGRTYYADSVKGRFTISRDNAKNTVYLQMNSLKPEDTAVYYCAADRNLYWDQHEYWGQGTQVTVSS")
"low polyreactivity"
>>> measurement("QVQLVESGGGLVQAGGSLRLSCAASGRIFYTNTMGWYRQAPGKERELVAAIRSGTRTYYADSVKGRFTISRDNAKNTVYLQMNSLKPEDTAVYYCAAYYSYYGGDYWGQGTQVTVSS")
"low polyreactivity"
>>> measurement("QVQLVESGGGLVQAGGSLRLSCAASGSTFWFYAMGWYRQAPGKERELVAAITSSGSSTYYADSVKGRFTISRDNAKNTVYLQMNCLKPEDTAVYYCAADDSNDSPSLYYVAYNYWGQGTQVTVSS")
"low polyreactivity"
>>> measurement("QVQLVESGGGLVQAGGSLRLSCAASGIIFITYAMGWYRQAPGKERELVAAITNSGGGTYYADSVKGRFTISRDNAKNTVDLQMTSLKPEDTAVYYCAARKTAYGYRYDYWGQGTQVTVSS")
"high polyreactivity"
>>> measurement("QVQLVESGGGLVQAGGSLRLSCPASGRTIRPYAMGWYRQAPGKERELVAAITGSGTSTYYADSVKGRFTISRDNAKNTVYLQMNSLKPEDTAVYYCAVAIGYVYKTYYYWGQGTQVTVSS")
"high polyreactivity"
>>> measurement("QVQLVESGGGLVQAGGSLRLSCAASGQTFPFYTKGWYRQAPGKERELVGAISRRGGSTYYADSVKGRFTISRDNAKYTVYLQMKSLKPEDTAVYYCAADKYSWYDYWGQGTQVTVSS")
"low polyreactivity"

Q. Item under review: "QVQLVESGGGLVQAGGSLRLSCAASGSTFNFYAMGWARQAPGKERELVAAIRQSSGRTYYADSVKGRFTISRDNAKNTVYLQMNSLKPEDTAVYYCNARVPRYNGGSTMEYWGQGTQVTVSS" . Reported polyreactivity (PSR sort gate)?
A. high polyreactivity

Q. Another sequence: "QVQLVESGGGLDQAGGSLRLSCAASGITFVRYAMGWYRQAPGKERELVAAISWSGGSTYYADSVKGRFTISRDNEKNTVYLQMNSLKPEDTAVYYCAAQHDVRYDYWGQGTQVTVSS"
A. low polyreactivity

Q. What about this sequence? "QVQLVESGGGLVQAGGSLRLSCAASGSIFRIYAMGWYRQAPGKERELVAAISWTGGSTYYADSVKGRFTISRDNAKNTFFLQMNSLKPEDTAVYYCAARPRYKFSAYEYWGQGTQVTVSS"
A. high polyreactivity
